The origin of these recorded values is PubChem BioAssay (EPA / NIEHS).

Read-out: ABC Transporter (ABCB1), ABCB1 (gene 5243)
test-name: CLD_ABCB1_24hr: CellzDirect (CLD) Gene Expression Assay for ABC Transporter (ABCB1) at 24 hours (AID 2283684)
Experimental: CLD_24hr is a cell-based, multiplexed-readout assay that uses hepatocyte, a human liver primary cell, with measurements taken at 24 hours after chemical dosing in a 96-well plate.CLD_ABCB1_24hr is one of 16 assay component(s) measured or calculated from the CLD_24hr assay. […] Furthermore, this assay endpoint can be referred to as a primary readout. […]
Records with an inconclusive call do not appear. Activity calls are given as the source filed them. The calls were made as follows: active = hit-call score of the fitted dose curve at least 0.9, where 1 is the maximum; inconclusive = response in the unintended direction; inactive = score below 0.9.
Choose one outcome from this list and give only that: true (1) for active, false (0) for inactive

Query: Could you check what this test reported for `CCOP(=S)(OCC)SCCSCC` ?
Result: false (0)

Query: Continue with `C[Si](Cn1cncn1)(c1ccc(F)cc1)c1ccc(F)cc1`
Result: true (1)

Query: Again, but for CC(COc1ccc(Oc2ccccc2)cc1)Oc1ccccn1 (configuration not stated)
Result: false (0)

Query: Queued: `CCc1cccc(CC)c1N(COC)C(=O)CCl`
Result: false (0)

Query: Then what about the compound `CC[C@H](C)[C@H]1O[C@]2(C=C[C@@H]1C)C[C@@H]1C[C@@H](C/C=C(\C)[C@@H](O[C@H]3C[C@H](OC)[C@@H](O[C@H]4C[C@H](OC)[C@@H](NC)[C@H](C)O4)[C@H](C)O3)[C@@H](C)/C=C/C=C3\CO[C@@H]4[C@H](O)C(C)=C[C@@H](C(=O)O1)[C@]34O)O2` ?
Result: false (0)

Pending compound:
Query: What outcome does the record of this test show for `S=C1NCCN1` ?
Result: false (0)

---

Read-out: organic anion transporter (SLCO1B1), SLCO1B1 (gene 10599)
test-name: CLD_SLCO1B1_6hr: CellzDirect (CLD) Gene Expression Assay for organic anion transporter (SLCO1B1) at 6 hours (AID 2283668);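 also: active means mRNA induction above DMSO baseline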
Records with an inconclusive call do not appear. Calls of active or inactive are those of the source. The calls were made as follows: active = hit-call score of the fitted dose curve at least 0.9, where 1 is the maximum; inconclusive = response in the unintended direction; inactive = score below 0.9.
measured-endpoint: outcome

Query: Field request: outcome | item: `CON=C(C(=O)OC)c1ccccc1CON=C(C)c1cccc(C(F)(F)F)c1`
Result: inactive

Query: Repeat for the following compound: CCC(=NOC/C=C/Cl)C1=C(O)CC(C2CCOCC2)CC1=O (centres undefined)
Result: inactive

Query: Query `CC1=NNC(=O)N(/N=C/c2cccnc2)C1` next
Result: inactive

Query: Now consider COP(=O)(OC)C(O)C(Cl)(Cl)Cl (centres undefined) .
Result: inactive

Others:
Query: Need outcome, item `CCc1cccc(CC)c1N(COC)C(=O)CCl`
Result: inactive

Query: Same question for `Cc1ccn2nc(S(=O)(=O)Nc3c(F)cccc3F)nc2n1` please.
Result: inactive

---

Read-out: ABC Transporter (ABCB1), ABCB1 (gene 5243)
test-name: LTEA_HepaRG_ABCB1: Life Technologies and Expression Analysis (LTEA) Assay for ABC Transporter (ABCB1) using HepaRG (AID 2283460)
assay-setup: mRNA level, 48 h; actives raise or lower the signal
The source made the active and inactive calls. The calls were made as follows: active = hit-call score of the fitted dose curve at least 0.9, where 1 is the maximum; inactive = score below 0.9.
measured-endpoint: AC50

# example entries with known answers
Query: # query: AC50 of entry `CC1=NNC(=O)N(/N=C/c2cccnc2)C1`
Result: inactive

Query: Here is the next compound: `Nc1nc(N)nc(NC2CC2)n1`
Result: inactive

Query: Moving on to CC(COc1ccc(Oc2ccccc2)cc1)Oc1ccccn1 (configuration not stated)
Result: inactive

Query: Follow-up entry: `CNC(=O)ON=C(SC)C(=O)N(C)C`
Result: inactive

Query: Thanks! And `CN1COCN(Cc2cnc(Cl)s2)C1=N[N+](=O)[O-]` ?
Result: inactive

Query: Moving on to `CCOC(=O)COc1cc(-c2nn(C)c(OC(F)F)c2Cl)c(F)cc1Cl`
Result: 34.3 µM (active)

As a next step, examine the compound that follows.
Query: Please look up its AC50: `Nc1c(Cl)cc([N+](=O)[O-])cc1Cl`
Result: 31.1 µM (active)
